Recorded values, source ChEMBL document CHEMBL4765492.

For each record, write down the corresponding log10 CL free.
Test: Unbound intrinsic clearance in human liver microsomes
Assay type: ADME, Microsome
The common logarithm of CL free in mL/min/kg is what is listed.

Nc1cc(S(=O)(=O)c2ccc(F)cc2)cnc1C(=O)NC[C@@H](O)C(F)(F)F    1.23
Nc1cc(S(=O)(=O)N2CCC(OC(F)(F)F)CC2)cnc1C(=O)NCC(O)C(F)(F)F (stereo unspecified)    2.11
Nc1cc(S(=O)(=O)c2ccc(OC(F)(F)F)cc2)cnc1C(=O)NC[C@@H](O)C(F)(F)F    1.56
Nc1cc(S(=O)(=O)c2ccccc2OC(F)(F)F)cnc1C(=O)NC[C@@H](O)C(F)(F)F    1.65
C[C@H](O)CNC(=O)c1ncc(S(=O)(=O)c2ccc(OC(F)(F)F)cc2)cc1N    1.30

Turning to the following compound.
Record request: log10 CL free value, item `COc1ccc(S(=O)(=O)c2cc(C(N)=O)c(NC(=O)C(C)(C)O)s2)cc1`
1.00
